experiment: Acute toxicity in rats; conditions: Jcl-SD, rat, in vivo, sc, subcutaneously, male, read-out: LD₅₀
ENDPOINT_LABEL: LD50

// query Return reported LD50; argument: O=C(Nc1cccc2c(=O)cc(-c3nnn[nH]3)oc12)c1ccc(OCCCCc2ccccc2)cc1 [Compound A, hydrate]
// result > 2000 mg/kg

---

Experiment: Acute toxicity in mice
Details: Jcl-ICR, mouse, in vivo, po, orally, female, read-out: LD₅₀
Protocol: Compound A was orally or subcutaneously administered to each ten male and female 6-weeks aged Jcl-ICR mice and Jcl-SD rats, respectively per group. Two groups of Compound A (1000 and 2000 mg/kg) were used by suspending into 0.5% carboxymethyl cellulose (CMC) aqueous solution at the concentration of 100 mg/ml.
ENDPOINT_LABEL: LD50

// query Return reported LD50; argument: O=C(Nc1cccc2c(=O)cc(-c3nnn[nH]3)oc12)c1ccc(OCCCCc2ccccc2)cc1 [Compound A, hydrate]
// result > 2000 mg/kg
